Biological target: HIV-1 Env of CAP45.G3 (HIV-1)
Assay: cell-based or functional assay

[
  {
    "Binder": "CAP256-VRC26.03 (antibody, V domains shown) VH: EVQLVESGGGVVQPGKSLRLSCAASRFSFNRYGMHWVRQAPGKGLEWVAAISYDGTDKYHADKVWGRFTISRDNSKNTLYLQMNSLRAEDTALYYCAKDLREDECEEWWSDYYDFGKQLPCRKSRGVAGIFDGWGQGTMVTVSS VL: QSVLTQPPSVSAAPGQKVTISCSGSSSNIGNNFVSWYQQRPGTAPKILIYENNKRPSETPDRFSGSKSGTSATLAITGLQTADEAEYYCATWSASLSSARVFGTGTRITVLG",
    "neutralization IC50": "10.7 µg/mL"
  }
]
